- ASSAY: yeast display, Sf9 membrane polyspecificity reagent, FACS + sequencing; frameworks hold sequencing errors
READOUT_KIND: polyreactivity (PSR sort gate)

QVQLVESGGGLVQAGGILRLSCAASGIIFGPNAMGWYRQAPGKERELVAAITSGGRTYYADSVKGRFTISRDNAKNTVYLHMNSLKPEDTAVYYCAARVWSWRSKYDYWGQGTQVTVSS ... high polyreactivity
QVQLVESGGCLVQAGGSLRLSCAASGSTFTLYAMGWYRPAPGKERELVAAIRRGGSTNYADSVKGRFTISRDNAKNTDYLQMNSLKPEDTAVYYCAADSYTSRSRYSGSGGYDYGGQGTQVTVSS ... low polyreactivity
QVQHVESGGGLVQAGGSLRLSCAASGITFWSNAKGWYRQAPGKEREMVAAITSSGGSTYYADSVKGRFTISRDNAKNTVYLHMNSLKPEDTAVYYCAAPISSSAGWDSYDYWGQGTQVTVSS ... low polyreactivity
QVQLVESGGGLVQAGGSLRLSCAASGRTFFRNTMGWYRQAPGKERELVATISSSGGSTYYADSVKGRFTISRDNAKNTVYLQMNSLKPEDTAVYYCAAAPSKWYYGYGYWGQGTQVTVSS ... high polyreactivity
QLQLVESGGGLVQAGGSLRLSCAASGSTFDYNAKGWYRQAPGKERELVAAITSTGGNTYYADSVKGRFTIARDNAKNSVYIQMNSLKQEDTAVYYCNKDVARYPYGKCDYWGQGTQVTVSS ... low polyreactivity

Which polyreactivity (PSR sort gate) value belongs to QVQLVESGGGLVQAGGSLRLTCAASGRIFITNAMGWYSQAPGKEREMVAVISYIGGRTYYADSVKGRFTISRDNAKNTVYLQMNSLKPEDTAVYYCAARRSRPTYYSTGVNYWGQGTQVTVSS ?
high polyreactivity

Name the recorded polyreactivity (PSR sort gate) for QVQLVESGGGLVQAGGSLRLSSDASGRIFRYYSMGWYRQAPGKERELVAAITRGGYTNYADSVKGRFTISRDNAKITVYFQMNSLKQEDTAVYYCATRQSWYPRWMDYWGQGTQVTVSS .
high polyreactivity

polyreactivity (PSR sort gate) lookup needed for QVQLVESGGGLVQAGGSLRLTCAASGRIIIGYVMGWYRQAPGKERELVATISYSGGSTYADSVKGRFTISRDNAKNTVYLQMNSLKPEDTAVYYCAARPYYRYYRYPYGYWGQGTQVTVSS , thanks.
high polyreactivity

// polyreactivity (PSR sort gate) lookup, key: QVQLVESGGGLVQAGGSLRLSCAASGLTFEYYTMGWYRQAPGIERELVAAITSSGGSTYYADSVKGRFTISRDNAKNTVYLQMISLKPEDTAVYYCNAYWTYEFPSYEYWGQGTQVTVSS
low polyreactivity

Look up polyreactivity (PSR sort gate): QVHLVESGGGLVQAGGSLRLSCAASGSIFDYYDMGWYRQAPGKERELVASITWSGGRTSYADSVKGRFTISRDNAKNTVYLQMNSLKPEDNAVYYCNARGFRGEYDYWVQGTQVTVSS
high polyreactivity

Consider the sequence QVQLVESGGGLVQAGGSLRLSCAASGFIFIYNAMGWYRQAPGKERELVASITSGGGSTYYADSVKGRFTISRDNAKNTVYLQMNSLKPEDTAVYYCAKQDAVQGAEASGEYDYWGQGTQVTVSS and give its measured polyreactivity (PSR sort gate).
low polyreactivity
